- Tested on: biotinyl-Met-oxazolone
- Procedure Text: self-aminoacylation, catalytic enhancement (BMO) (fold over background); higher = more active; k-Seq, kA / k0A0; sequences stand for … in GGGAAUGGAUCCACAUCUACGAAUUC…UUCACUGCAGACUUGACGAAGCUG
Variants at the floor of the assay were thinned out.
Classification scheme (self-aminoacylation): lower bin = under 1, middle bin = from 1 up to 2, upper bin = 2 and over

Previously resolved entries follow.
In [3]: df
Out[3]:
                                        seq         cat
0  AUUCACCUAGAUCAUCUGGUG [Fam2.2 aminoacylation ribozyme variant]   upper bin
1  GAGUUUGCUAUUAGUCGCAAG [Fam3.1 aminoacylation ribozyme variant]  middle bin
2  CCACACUUAAAGGAAUCGGUC [Fam1B.1 aminoacylation ribozyme variant]   lower bin
3  CUACUGCAUACAAUCGGUCUG [Fam1A.1 aminoacylation ribozyme variant]   lower bin

stdin: Class label required: AAGUCUGCUAAUAGUCGAAAG [Fam3.1 aminoacylation ribozyme variant]
stdout: middle bin

stdin: Form field 'band' for AUUACCUUGGACAUCGAGUGA [Fam2.1 aminoacylation ribozyme variant]
stdout: upper bin

stdin: Where would AUUACCCCGUUCAUCGAGUGA [Fam2.1 aminoacylation ribozyme variant] land among the classes by reported self-aminoacylation?
stdout: upper bin

stdin: Tag the class for AUUCACCUAAGUCACCGGGUG [Fam2.2 aminoacylation ribozyme variant]
stdout: upper bin

stdin: Which category does the recorded self-aminoacylation put AUUCGCCUAGGUCAUCGUGUG [Fam2.2 aminoacylation ribozyme variant] in?
stdout: middle bin

stdin: Which category does the recorded self-aminoacylation put AAGUUUGCUAAUAGUGGCAAC [Fam3.1 aminoacylation ribozyme variant] in?
stdout: lower bin

---

- System: biotinyl-Met-oxazolone
- Procedure Text: self-aminoacylation, catalytic enhancement (BMO) (fold over background); higher = more active; k-Seq, kA / k0A0; sequences stand for … in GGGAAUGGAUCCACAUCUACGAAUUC…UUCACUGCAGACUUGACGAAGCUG
Fewer inactive variants are shown than the library holds.
Recorded self-aminoacylation values for a group of sequences are listed next.
Reply: number alone, nothing else.

Use the examples below as a reference point.
In [3]: df
Out[3]:
                                        seq  reported_measurement
0  AUUCACCUAGGUCAUCCGGUG [Fam2.2 aminoacylation ribozyme variant]                  6.35
1  CCACACUUCAAGUAAUCGGUG [Fam1B.1 aminoacylation ribozyme variant]                  4.68
2  AUUACCCUAGCCAUCGAGUGA [Fam2.1 aminoacylation ribozyme variant]                  3.86
3  UUUCACCUAGGCCAUCGGGUG [Fam2.2 aminoacylation ribozyme variant]                  3.71
4  CUACUUCAAACAAGCCGUCUG [Fam1A.1 aminoacylation ribozyme variant]                 0.925

stdin: Can you look up the measured self-aminoacylation of CUUACUCUGGUCAUCGAGUGA [Fam2.1 aminoacylation ribozyme variant] for me?
stdout: 4.98

stdin: Quick one: self-aminoacylation of AUUACCCUCGUCAUCGAGUGG [Fam2.1 aminoacylation ribozyme variant] ?
stdout: 1.31

---

self-aminoacylation values for the sequences below.
- Test system: biotinyl-Val-oxazolone
- Procedure Text: self-aminoacylation, catalytic enhancement (BVO) (fold over background); higher = more active; k-Seq, kA / k0A0; sequences stand for … in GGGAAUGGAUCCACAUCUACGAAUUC…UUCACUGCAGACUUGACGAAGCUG
Variants at the floor of the assay were thinned out.
Answer with a bare number; do not write a unit.

>>> print(df.to_string())
                                        seq  reported_measurement
0  CCACUCUUCAAGCAAUGGGUC [Fam1B.1 aminoacylation ribozyme variant]                 0.859

stdin: Consider the sequence shown here: CUACUUCAAAGAAGCGGUCUG [Fam1A.1 aminoacylation ribozyme variant] What is its recorded self-aminoacylation?
stdout: 0.988

stdin: Fill blank: measured self-aminoacylation of the sequence AUUACCCUGAUCAUCGAGUGA [Fam2.1 aminoacylation ribozyme variant] is ____.
stdout: 4.15

stdin: Please give the measured self-aminoacylation for this sequence: CAACACUUCAAGCAAUGGGUC [Fam1B.1 aminoacylation ribozyme variant]
stdout: 0.664

stdin: Which self-aminoacylation is reported for this sequence? AGCCACCUAGGUCAUCGGGUG [Fam2.2 aminoacylation ribozyme variant]
stdout: 6.3

stdin: Which self-aminoacylation is listed for CCACACUUCAAGAAAUCGGGC [Fam1B.1 aminoacylation ribozyme variant] ?
stdout: 1.69

---

- Tested on: biotinyl-Val-oxazolone
- Procedure Text: self-aminoacylation, catalytic enhancement (BVO) (fold over background); higher = more active; k-Seq, kA / k0A0; sequences stand for … in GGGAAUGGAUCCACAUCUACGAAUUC…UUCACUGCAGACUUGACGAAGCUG
Fewer inactive variants are shown than the library holds.
Assay Readout: self-aminoacylation
Respond using a number only.

>>> print(df.to_string())
                                        seq  reported_measurement
0  CCACACUUCACGAAAUCGGUC [Fam1B.1 aminoacylation ribozyme variant]                  1.09
1  AUGCACCUAGGUCAGCGGGUG [Fam2.2 aminoacylation ribozyme variant]                  3.02
2  CCAAACUUCAAGCAAUCGGCC [Fam1B.1 aminoacylation ribozyme variant]                  3.04
3  CUUCUCCUAGGUCAUCGGGUG [Fam2.2 aminoacylation ribozyme variant]                  4.48
4  AUUCACCAAGGUCAUCGGUUG [Fam2.2 aminoacylation ribozyme variant]                  1.39
5  AUUCACCUAGGUCAUUGUGUG [Fam2.2 aminoacylation ribozyme variant]                 0.835
6  CCCCACUUCAAGCAAUGGGUC [Fam1B.1 aminoacylation ribozyme variant]                  1.67
7  GCACACUUCAAGCAGUCGGUC [Fam1B.1 aminoacylation ribozyme variant]                  1.41
8  AUUCAACCAGGUCAUCGGGUG [Fam2.2 aminoacylation ribozyme variant]                  4.22
9  AUCGACCUAGGUCAUCGGGUG [Fam2.2 aminoacylation ribozyme variant]                  4.44

stdin: Find the recorded self-aminoacylation belonging to CUACUUCAAACAAGCGGUUUG [Fam1A.1 aminoacylation ribozyme variant] and report it.
stdout: 0.701

stdin: Data request, read-out self-aminoacylation, for CUACUUCAAACAAUAGGUCUU [Fam1A.1 aminoacylation ribozyme variant]
stdout: 0.828

stdin: For GAGUUUGCUAAUAGUCGCAAG [Fam3.1 aminoacylation ribozyme variant] , what is its reported self-aminoacylation?
stdout: 1.5

stdin: Recorded self-aminoacylation for AUUCACCUAGGUCUACGGGUG [Fam2.2 aminoacylation ribozyme variant] , please?
stdout: 3.11

stdin: Quick check: self-aminoacylation of CCACUACAAACAAUCGGUCUG [Fam1A.1 aminoacylation ribozyme variant] ?
stdout: 1.12

stdin: Sample AUUACGCUGGUCAUAGAGUGA [Fam2.1 aminoacylation ribozyme variant] — what was its self-aminoacylation?
stdout: 2.23

stdin: Data request, read-out self-aminoacylation, for AUUAACCUGGGUCAUCGGGUG [Fam2.2 aminoacylation ribozyme variant]
stdout: 6.35

stdin: Dear colleague, I am looking for the recorded self-aminoacylation of the following sequence: AUUCACCUACGUGAUCGGGUG [Fam2.2 aminoacylation ribozyme variant]
stdout: 2

stdin: Give its self-aminoacylation value. Item: AUUCACCUAGGUCAUUGGGCG [Fam2.2 aminoacylation ribozyme variant]
stdout: 2.66

stdin: Requested field: self-aminoacylation. Item: UUUACCCUGGUCAUCGCGUGA [Fam2.1 aminoacylation ribozyme variant]
stdout: 9.57

stdin: Fill in: self-aminoacylation of CCACACUUCAAGCGAUCGGGC [Fam1B.1 aminoacylation ribozyme variant] is ___
stdout: 2.89

---

- Test system: biotinyl-Ile-oxazolone
- Procedure Text: self-aminoacylation, catalytic enhancement (BIO) (fold over background); higher = more active; k-Seq, kA / k0A0; sequences stand for … in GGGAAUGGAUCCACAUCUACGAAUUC…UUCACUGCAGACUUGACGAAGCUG
This sample holds only a part of the variants without activity.
self-aminoacylation for assorted sequences
// no unit string in output, number only

See these solved cases before continuing.
                                        seq  reported_measurement
0  AUUCACCUAAGUCAUCGGCUG [Fam2.2 aminoacylation ribozyme variant]                  1.52
1  CCACACUAUAAGCAAUCGGUC [Fam1B.1 aminoacylation ribozyme variant]                 0.789
2  AUUCCCCUGGUCAUCGAUUGA [Fam2.1 aminoacylation ribozyme variant]                  1.59
3  AAGUUUGCUGAUAGUCGCAAA [Fam3.1 aminoacylation ribozyme variant]                  1.71
4  CUACUUCAAACAAUUGGACUG [Fam1A.1 aminoacylation ribozyme variant]                 0.709
5  CCACACUCCAAGCAGUCGGUC [Fam1B.1 aminoacylation ribozyme variant]                  1.32

stdin: // self-aminoacylation lookup, key: AUCCACCUAGGUCAUCGGGAG [Fam2.2 aminoacylation ribozyme variant]
stdout: 1.88

stdin: Return reported self-aminoacylation; argument: GAGUUUGCUAUUAGUCGCAAG [Fam3.1 aminoacylation ribozyme variant]
stdout: 1.18

stdin: Quick one: self-aminoacylation for CCACACUUGAAGCAAUCGGUC [Fam1B.1 aminoacylation ribozyme variant] ?
stdout: 0.836

stdin: # self-aminoacylation lookup, item AUUAUCCGGGUCAUCGAGUGA [Fam2.1 aminoacylation ribozyme variant]
stdout: 4.14

stdin: Which value of self-aminoacylation has been reported for CCACACUUCGAGCAAUCGGUA [Fam1B.1 aminoacylation ribozyme variant] in the records?
stdout: 0.715
